B1: CPEB3 Ribozyme (parent)
chain: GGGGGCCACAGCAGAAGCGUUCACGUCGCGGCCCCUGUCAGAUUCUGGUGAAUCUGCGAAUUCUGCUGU

# Variants of: B1
# protocol: self-cleavage, relative activity (ratio to wild type); higher = more cleavage; co-transcriptional
Record form. Attribute: self-cleavage. Fill in for each entry.
Numbers only.

Take a look at these entries with their results.
   mutant_name  observed_measurement
0    C18A G30A                 0.117
1    C24G G48U                 0.528
2    A16C C35A                 0.071
3    C12G U36G                 0.294
4    G17C U26A                 0.156
5     G2U C27G                0.0366

Hi team, please reply with self-cleavage for each item in this list.
1. U55A C63A
2. C6U C66G
3. C33G U55A
4. C7U G48A
5. G31C U36C
6. U21A U55C
7. G17U G41C
8. A13U U21A

Resp:
1: 0.464; 2: 0.939; 3: 0.571; 4: 0.987; 5: 0.203; 6: 0.874; 7: 0.14; 8: 0.785
